Molecular target: T1, Abp1, P15891
T1 sequence (P15891 535-592, looked up): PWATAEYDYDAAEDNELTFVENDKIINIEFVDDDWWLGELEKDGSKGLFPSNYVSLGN
Assay: SPOT array
Conditions: median of control spots 935
Measured SPOT intensity of individual entries

# binder, result
rows = [
    ("FTLPPPPPPPGLDEL", 0),
]

Sample HVRRSILALPLGVLL — what was its SPOT intensity?
23

Sample KNPRRQLQIPRQQPS — what was its SPOT intensity?
92

Sample VRVKKRPLIRPLNSS — what was its SPOT intensity?
301

Sample PPIPNAPLSPAPAVP — what was its SPOT intensity?
0

Sample RKNRAPPQRPRFNRE — what was its SPOT intensity?
235

Sample LLIRWLILMPLVGSR — what was its SPOT intensity?
166
